# condition_details: in 1,4-dioxane, 303.15 K
measurement_type: solubility (mole fraction)
Give bare numbers.

I am curious: what solubility (mole fraction) value has been reported for "COC(=O)Nc1nc2ccc(C(=O)c3ccc(F)cc3)cc2[nH]1" ? 0.00014

----------
# condition_details: in ethanol, 333.15 K
measurement_type: solubility (mole fraction)
Give bare numbers.

I would be grateful if you could share the reported solubility (mole fraction) for "COC(=O)Nc1nc2ccc(C(=O)c3ccc(F)cc3)cc2[nH]1" . 3.33e-05

----------
# condition_details: in isobutanol, 298.15 K
measurement_type: solubility (mole fraction)
Give bare numbers.

Would you mind telling me what solubility (mole fraction) value was observed for "COC(=O)Nc1nc2ccc(C(=O)c3ccc(F)cc3)cc2[nH]1" ? 2.73e-05

----------
# condition_details: in water, 293.15 K
measurement_type: solubility (mole fraction)
One number for each entry.

What value of measured solubility (mole fraction) is listed for "COC(=O)Nc1nc2ccc(C(=O)c3ccc(F)cc3)cc2[nH]1" ? 1.67e-07

----------
# condition_details: in ethanol, 308.15 K
measurement_type: solubility (mole fraction)
Give bare numbers.

Quick one: solubility (mole fraction) of "COC(=O)Nc1nc2ccc(C(=O)c3ccc(F)cc3)cc2[nH]1" ? 7.73e-06

----------
# condition_details: in isopropanol, 298.15 K
measurement_type: solubility (mole fraction)
Give bare numbers.

// solubility (mole fraction) lookup, key: "COC(=O)Nc1nc2ccc(C(=O)c3ccc(F)cc3)cc2[nH]1" 1.14e-05

----------
# condition_details: in NMP, 288.15 K
measurement_type: solubility (mole fraction)
One number for each entry.

# input molecule: "COC(=O)Nc1nc2ccc(C(=O)c3ccc(F)cc3)cc2[nH]1" ; wanted: its solubility (mole fraction) 0.000918

----------
# condition_details: in ethanol, 298.15 K
measurement_type: solubility (mole fraction)

If you can, please state the reported solubility (mole fraction) value of "COC(=O)Nc1nc2ccc(C(=O)c3ccc(F)cc3)cc2[nH]1" . 3.74e-06

----------
# condition_details: in DMSO, 303.15 K
measurement_type: solubility (mole fraction)
Numbers only.

Value lookup for solubility (mole fraction); key = "COC(=O)Nc1nc2ccc(C(=O)c3ccc(F)cc3)cc2[nH]1" 0.00261

----------
# condition_details: in DMF, 313.15 K
measurement_type: solubility (mole fraction)
Answers are plain numbers.

Which solubility (mole fraction) value is on record for "COC(=O)Nc1nc2ccc(C(=O)c3ccc(F)cc3)cc2[nH]1" ? 0.00162

----------
# condition_details: in isobutanol, 328.15 K
measurement_type: solubility (mole fraction)

Find the recorded solubility (mole fraction) belonging to "COC(=O)Nc1nc2ccc(C(=O)c3ccc(F)cc3)cc2[nH]1" and report it. 0.000116

----------
# condition_details: in DMF, 298.15 K
measurement_type: solubility (mole fraction)
One number for each entry.

Could you tell me which solubility (mole fraction) is on file for "COC(=O)Nc1nc2ccc(C(=O)c3ccc(F)cc3)cc2[nH]1" ? 0.00098

----------
# condition_details: in n-butanol, 293.15 K
measurement_type: solubility (mole fraction)
Answers are plain numbers.

Dear colleague, I am looking for the recorded solubility (mole fraction) of the following compound: "COC(=O)Nc1nc2ccc(C(=O)c3ccc(F)cc3)cc2[nH]1" 3.46e-05

----------
# condition_details: in water, 283.15 K
measurement_type: solubility (mole fraction)
Numbers only.

Could you tell me which solubility (mole fraction) is on file for "COC(=O)Nc1nc2ccc(C(=O)c3ccc(F)cc3)cc2[nH]1" ? 1.03e-07

----------
# condition_details: in isobutanol, 283.15 K
measurement_type: solubility (mole fraction)
Answers are plain numbers.

What value of measured solubility (mole fraction) is listed for "COC(=O)Nc1nc2ccc(C(=O)c3ccc(F)cc3)cc2[nH]1" ? 1.2e-05

----------
# condition_details: in isopropanol, 313.15 K
measurement_type: solubility (mole fraction)

Returns the measured solubility (mole fraction) for the input molecule. Input: "COC(=O)Nc1nc2ccc(C(=O)c3ccc(F)cc3)cc2[nH]1" 1.93e-05

----------
# condition_details: in ethanol, 313.15 K
measurement_type: solubility (mole fraction)
Numbers only.

Entry "COC(=O)Nc1nc2ccc(C(=O)c3ccc(F)cc3)cc2[nH]1" : reported solubility (mole fraction) = ? 1.01e-05

----------
# condition_details: in DMF, 328.15 K
measurement_type: solubility (mole fraction)

// returns reported solubility (mole fraction) for input "COC(=O)Nc1nc2ccc(C(=O)c3ccc(F)cc3)cc2[nH]1" 0.00259

----------
# condition_details: in water, 288.15 K
measurement_type: solubility (mole fraction)
Numbers only.

Can you share its solubility (mole fraction)? I mean this molecule: "COC(=O)Nc1nc2ccc(C(=O)c3ccc(F)cc3)cc2[nH]1" 1.31e-07

----------
# condition_details: in 2-butanone, 293.15 K
measurement_type: solubility (mole fraction)
Answers are plain numbers.

Please report the recorded solubility (mole fraction) for "COC(=O)Nc1nc2ccc(C(=O)c3ccc(F)cc3)cc2[nH]1" . 0.000401

----------
# condition_details: in water, 328.15 K
measurement_type: solubility (mole fraction)
Answers are plain numbers.

Return reported solubility (mole fraction); argument: "COC(=O)Nc1nc2ccc(C(=O)c3ccc(F)cc3)cc2[nH]1" 7.33e-07

----------
# condition_details: in DMF, 283.15 K
measurement_type: solubility (mole fraction)
Answers are plain numbers.

Please give the measured solubility (mole fraction) for this compound: "COC(=O)Nc1nc2ccc(C(=O)c3ccc(F)cc3)cc2[nH]1" 0.000572

----------
# condition_details: in 2-butanone, 323.15 K
measurement_type: solubility (mole fraction)
Numbers only.

Return reported solubility (mole fraction); argument: "COC(=O)Nc1nc2ccc(C(=O)c3ccc(F)cc3)cc2[nH]1" 0.0017

----------
# condition_details: in n-propanol, 303.15 K
measurement_type: solubility (mole fraction)
Numbers only.

Give its solubility (mole fraction) value. Item: "COC(=O)Nc1nc2ccc(C(=O)c3ccc(F)cc3)cc2[nH]1" 2.16e-05

----------
# condition_details: in 1,4-dioxane, 288.15 K
measurement_type: solubility (mole fraction)
One number for each entry.

Request the reported solubility (mole fraction) associated with "COC(=O)Nc1nc2ccc(C(=O)c3ccc(F)cc3)cc2[nH]1" 8.29e-05

----------
# condition_details: in ethanol, 323.15 K
measurement_type: solubility (mole fraction)
Answers are plain numbers.

Value lookup for solubility (mole fraction); key = "COC(=O)Nc1nc2ccc(C(=O)c3ccc(F)cc3)cc2[nH]1" 1.94e-05

----------
# condition_details: in DMF, 318.15 K
measurement_type: solubility (mole fraction)
One number for each entry.

Query (compound): "COC(=O)Nc1nc2ccc(C(=O)c3ccc(F)cc3)cc2[nH]1" ; field requested: solubility (mole fraction) 0.00188

----------
# condition_details: in NMP, 303.15 K
measurement_type: solubility (mole fraction)
Answers are plain numbers.

Requested field: solubility (mole fraction). Item: "COC(=O)Nc1nc2ccc(C(=O)c3ccc(F)cc3)cc2[nH]1" 0.00142

----------
# condition_details: in isopropanol, 318.15 K
measurement_type: solubility (mole fraction)
Give bare numbers.

Can you look up the measured solubility (mole fraction) of "COC(=O)Nc1nc2ccc(C(=O)c3ccc(F)cc3)cc2[nH]1" for me? 2.22e-05

----------
# condition_details: in ethanol, 288.15 K
measurement_type: solubility (mole fraction)
One number for each entry.

Entry under review: "COC(=O)Nc1nc2ccc(C(=O)c3ccc(F)cc3)cc2[nH]1" . Reported solubility (mole fraction)? 1.56e-06

----------
# condition_details: in DMSO, 333.15 K
measurement_type: solubility (mole fraction)
Give bare numbers.

What measured solubility (mole fraction) goes with "COC(=O)Nc1nc2ccc(C(=O)c3ccc(F)cc3)cc2[nH]1" ? 0.00627

----------
# condition_details: in NMP, 298.15 K
measurement_type: solubility (mole fraction)
Give bare numbers.

Name the reported solubility (mole fraction) value associated with the compound "COC(=O)Nc1nc2ccc(C(=O)c3ccc(F)cc3)cc2[nH]1" 0.00122

----------
# condition_details: in methanol, 298.15 K
measurement_type: solubility (mole fraction)
Numbers only.

Please give the measured solubility (mole fraction) for this compound: "COC(=O)Nc1nc2ccc(C(=O)c3ccc(F)cc3)cc2[nH]1" 2.25e-06

----------
# condition_details: in 1,4-dioxane, 333.15 K
measurement_type: solubility (mole fraction)
Numbers only.

Which measured solubility (mole fraction) value corresponds to "COC(=O)Nc1nc2ccc(C(=O)c3ccc(F)cc3)cc2[nH]1" ? 0.000357

----------
# condition_details: in DMSO, 293.15 K
measurement_type: solubility (mole fraction)
Answers are plain numbers.

Quick check: solubility (mole fraction) of "COC(=O)Nc1nc2ccc(C(=O)c3ccc(F)cc3)cc2[nH]1" ? 0.00191

----------
# condition_details: in NMP, 323.15 K
measurement_type: solubility (mole fraction)
Give bare numbers.

Which solubility (mole fraction) is reported for this compound? "COC(=O)Nc1nc2ccc(C(=O)c3ccc(F)cc3)cc2[nH]1" 0.00252
